Molecular target: T1, huNectin4-His (human, UniProt Q96NY8 32-349)
T1 construct: Immobilized on the SPR chip; also called humanNectin4; human Nectin4; not shown: His tag
T1 sequence (looked up): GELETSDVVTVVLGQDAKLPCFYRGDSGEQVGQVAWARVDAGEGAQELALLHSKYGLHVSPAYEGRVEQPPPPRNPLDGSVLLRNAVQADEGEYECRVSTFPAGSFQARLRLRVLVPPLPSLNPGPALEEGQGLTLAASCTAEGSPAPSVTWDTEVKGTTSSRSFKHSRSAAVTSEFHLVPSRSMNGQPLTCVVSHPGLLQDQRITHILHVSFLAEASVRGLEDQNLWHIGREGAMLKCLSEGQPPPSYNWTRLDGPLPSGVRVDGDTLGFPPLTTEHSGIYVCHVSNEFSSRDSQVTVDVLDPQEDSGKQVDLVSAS
Assay: SPR, huNectin4-His immobilized, pH 6.0
Observable: Kd (nM)
Lab book: enter the figure in nM, no units written.

Reference set, count: 2
[[record]]
binder = "BAP-143-06-33-16 (antibody, V domains shown, Used as a conjugate with a linker payload (CAB ADC)) VH: EVQLVQSGAEVKKPGATVKISCKVSGFTFSSYNMNWIRQSPSRGLEWLGYISSSSSTIYYADSVKGRFTISRDNSKNTLYLQMNSLRAEDTAVYYCARAYYYGDDVWGQGTLVTVSS VL: DIQMTQSPSSVSASVGDRVTITCRASQGISGWEAWYQQKPGKAPKFLIYAASTLQSGVPSRFSGSGSGTDFTLTISSLQPEDFATYYCQQANSFPPTFGGGTKVEIK"
recorded_measurement = 0.11

[[record]]
binder = "BAP-143-00-01 (antibody, V domains shown, Used as a conjugate with a linker payload (CAB ADC)) VH: EVQLVESGGGLVQPGGSLRLSCAASGFTFSSYNMNWVRQAPGKGLEWVSYISSSSSTIYYADSVKGRFTISRDNAKNSLSLQMNSLRDEDTAVYYCARAYYYGMDVWGQGTTVTVSS VL: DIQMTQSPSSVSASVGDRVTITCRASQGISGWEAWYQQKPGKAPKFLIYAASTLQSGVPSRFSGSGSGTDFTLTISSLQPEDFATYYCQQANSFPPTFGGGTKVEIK"
recorded_measurement = 0.739


Could you now look at the following binder, please?
## Task Look up Kd for this binder: BAP-143-wildtype (antibody, V domains shown, 150 kDa used in SPR; also called BAP143-00-00; benchmark (BM)) VH: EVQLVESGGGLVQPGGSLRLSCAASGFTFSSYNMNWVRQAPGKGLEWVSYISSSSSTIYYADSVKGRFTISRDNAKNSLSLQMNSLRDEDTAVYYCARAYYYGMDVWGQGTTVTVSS VL: DIQMTQSPSSVSASVGDRVTITCRASQGISGWLAWYQQKPGKAPKFLIYAASTLQSGVPSRFSGSGSGTDFTLTISSLQPEDFATYYCQQANSFPPTFGGGTKVEIK
## Result 0.149
